TARGET ENTITY: ZmDRIK1-K217-S514 (Zea mays, UniProt C0P4K9)
Construct: kinase domain, K217-S514
ASSAY TEXT: biochemical
COND: read-out: dTm B, sheet ZmDRIK1-K217-S514;; DSF, Boltzmann fit, 0.1% DMSO
ΔTm at 10 µM strictly under -0.2 °C means class 1; at -0.2 °C or over means class 0.

INSERT INTO measurements (compound, classification) VALUES
  ('CO[C@H]1C[C@@H]2CC[C@@H](C)[C@@](O)(O2)C(=O)C(=O)N2CCCC[C@H]2C(=O)O[C@H]([C@H](C)C[C@@H]2CC[C@H](n3cnnn3)[C@H](OC)C2)CC(=O)[C@H](C)/C=C(\C)[C@@H](O)[C@@H](OC)C(=O)[C@H](C)C[C@H](C)/C=C/C=C/C=C/1C', 'class 1'),
  ('Cc1ccc(C(=O)Nc2ccc(CN3CCN(C)CC3)c(C(F)(F)F)c2)cc1C#Cc1cnc2[nH]ncc2c1', 'class 0'),
  ('Cn1cc(-c2cnn3c(N)c(Br)c([C@@H]4CCCNC4)nc23)cn1 [MK-8776 (SCH 900776)]', 'class 1'),
  ('CNC(=O)c1cccc(-c2ccc3c(N4CCOC[C@@H]4C)nc(N4CCOC[C@@H]4C)nc3n2)c1', 'class 0'),
  ('CCS(=O)(=O)c1cccc(-c2cc(C(=O)NC3CCN(C)CC3)c(C)c3[nH]c4ncc(C)cc4c23)c1', 'class 0');

====

TARGET ENTITY: ZmDRIK1-K217-P492 (Zea mays, UniProt C0P4K9)
Construct: kinase domain, K217-P492
ASSAY TEXT: biochemical
COND: read-out: dTm B, sheet ZmDRIK1-K217-P492;; DSF, Boltzmann fit, 0.1% DMSO
ΔTm at 10 µM strictly under -0.9 °C means TRUE; at -0.9 °C or over means FALSE.

INSERT INTO assay_data (molecule, classification) VALUES
  ('COc1cc(N2CCC(N3CCN(C)CC3)CC2)ccc1Nc1ncc(Cl)c(Nc2ccccc2P(C)(C)=O)n1', 'TRUE'),
  ('CCC(=O)Nc1cccc(Oc2nc(Nc3ccc(N4CCN(C)CC4)cc3OC)ncc2Cl)c1', 'TRUE'),
  ('Cc1ccc(-c2nn(C(C)(C)C)c3ncnc(N)c23)cc1', 'TRUE'),
  ('Cc1nc(Nc2ncc(C(=O)Nc3c(C)cccc3Cl)s2)cc(N2CCN(CCO)CC2)n1', 'TRUE'),
  ('Cc1ccc(-n2nc(C(C)(C)C)cc2NC(=O)Nc2ccc(OCCN3CCOCC3)c3ccccc23)cc1', 'FALSE'),
  ('CN1CCC(CNc2ccc3ncc(-c4cccc(OC(F)(F)F)c4)n3n2)CC1 [SGI-1776 free base]', 'FALSE'),
  ('Oc1ccc(Nc2nc(-c3ccc(Cl)cc3)cs2)cc1', 'FALSE'),
  ('COc1cc(OC)c(/C=C/S(=O)(=O)Cc2ccc(OC)c(NCC(=O)O)c2)c(OC)c1', 'FALSE');

====

TARGET ENTITY: ZmDRIK1-K217-S514 (Zea mays, UniProt C0P4K9)
Construct: kinase domain, K217-S514
Sequence (C0P4K9 1-514): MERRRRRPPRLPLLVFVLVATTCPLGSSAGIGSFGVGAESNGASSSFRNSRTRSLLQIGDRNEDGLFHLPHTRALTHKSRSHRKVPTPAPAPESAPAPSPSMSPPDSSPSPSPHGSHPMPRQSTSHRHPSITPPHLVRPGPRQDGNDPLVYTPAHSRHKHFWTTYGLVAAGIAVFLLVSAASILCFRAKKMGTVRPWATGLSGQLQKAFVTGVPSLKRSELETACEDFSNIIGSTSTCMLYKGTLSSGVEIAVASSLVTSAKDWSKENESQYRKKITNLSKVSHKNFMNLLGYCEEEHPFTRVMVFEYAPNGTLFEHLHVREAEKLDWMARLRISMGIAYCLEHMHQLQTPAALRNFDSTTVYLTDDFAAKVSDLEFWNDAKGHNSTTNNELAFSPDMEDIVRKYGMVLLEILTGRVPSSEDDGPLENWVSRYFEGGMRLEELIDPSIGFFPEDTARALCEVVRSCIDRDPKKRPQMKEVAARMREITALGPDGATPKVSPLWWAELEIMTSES
ASSAY TEXT: biochemical
COND: read-out: dTm B, sheet ZmDRIK1-K217-S514;; DSF, Boltzmann fit, 0.1% DMSO
Structures can show the parent of a compound that is named as a salt.
Listing of entries alongside the reported ΔTm at 10 µM.
MEASUREMENT LABEL: ΔTm at 10 µM (°C)

INSERT INTO results (compound, target_entity, measurement_label, observed) VALUES
  ('C=CC(=O)Nc1cccc(Nc2nc(Nc3ccc(OCCOC)cc3)ncc2F)c1', 'ZmDRIK1-K217-S514 (Zea mays, UniProt C0P4K9)', 'ΔTm at 10 µM', 0.698),
  ('Cc1cnc(Nc2ccc(OCCN3CCCC3)cc2)nc1Nc1cccc(S(=O)(=O)NC(C)(C)C)c1 [TG101348 (SAR302503)]', 'ZmDRIK1-K217-S514 (Zea mays, UniProt C0P4K9)', 'ΔTm at 10 µM', -0.238),
  ('Cc1ccc2nc(NCCN)c3ncc(C)n3c2c1', 'ZmDRIK1-K217-S514 (Zea mays, UniProt C0P4K9)', 'ΔTm at 10 µM', -0.486),
  ('Cc1[nH]c(/C=C2\C(=O)Nc3ccccc32)c(C)c1CCC(=O)O [TSU-68 (SU6668)]', 'ZmDRIK1-K217-S514 (Zea mays, UniProt C0P4K9)', 'ΔTm at 10 µM', -0.226),
  ('Cc1ccc(NC(=O)c2ccc(CN3CCN(C)CC3)cc2)cc1Nc1nc(-c2cccnc2)cs1', 'ZmDRIK1-K217-S514 (Zea mays, UniProt C0P4K9)', 'ΔTm at 10 µM', -0.217),
  ('COc1cc2c(Nc3ccc(NC(=O)c4ccccc4)cc3)ncnc2cc1OCCCN1CCOCC1', 'ZmDRIK1-K217-S514 (Zea mays, UniProt C0P4K9)', 'ΔTm at 10 µM', 0.111),
  ('CC(C)(C)c1cc(C=C(C#N)C#N)cc(Br)c1O', 'ZmDRIK1-K217-S514 (Zea mays, UniProt C0P4K9)', 'ΔTm at 10 µM', -0.233),
  ('CCCNC(=O)Nc1ccc(Oc2ncnc3cc(OC)c(OC)cc23)cc1Cl', 'ZmDRIK1-K217-S514 (Zea mays, UniProt C0P4K9)', 'ΔTm at 10 µM', -0.102),
  ('CCc1cncnc1N1CCN(Cc2nc3ccc(C(F)(F)F)cc3[nH]2)CC1', 'ZmDRIK1-K217-S514 (Zea mays, UniProt C0P4K9)', 'ΔTm at 10 µM', -0.219),
  ('O=C1NCCc2[nH]c(-c3ccncc3)cc21', 'ZmDRIK1-K217-S514 (Zea mays, UniProt C0P4K9)', 'ΔTm at 10 µM', -0.125),
  ('C[C@@H]1COCCN1c1cc(C2(S(C)(=O)=O)CC2)nc(-c2cccc3[nH]ccc23)n1', 'ZmDRIK1-K217-S514 (Zea mays, UniProt C0P4K9)', 'ΔTm at 10 µM', -0.493),
  ('O=C(NCc1ccccc1)c1csc(Nc2ccncn2)n1', 'ZmDRIK1-K217-S514 (Zea mays, UniProt C0P4K9)', 'ΔTm at 10 µM', -0.368),
  ('O=c1c(O)c(-c2ccc(O)c(O)c2)oc2cc(O)cc(O)c12', 'ZmDRIK1-K217-S514 (Zea mays, UniProt C0P4K9)', 'ΔTm at 10 µM', -0.0338),
  ('Cn1cc(-c2ccc3nnc(Sc4ccc5ncccc5c4)n3n2)cn1', 'ZmDRIK1-K217-S514 (Zea mays, UniProt C0P4K9)', 'ΔTm at 10 µM', -0.351),
  ('N#CC(=C(/N)Sc1ccccc1N)/C(C#N)=C(\N)Sc1ccccc1N', 'ZmDRIK1-K217-S514 (Zea mays, UniProt C0P4K9)', 'ΔTm at 10 µM', -0.582),
  ('COc1cc2nccc(Oc3ccc(NC(=O)Nc4cc(C)on4)c(Cl)c3)c2cc1OC', 'ZmDRIK1-K217-S514 (Zea mays, UniProt C0P4K9)', 'ΔTm at 10 µM', -0.402),
  ('N#C/C(=C\c1ccc(O)c(O)c1)C(=O)NCc1ccccc1', 'ZmDRIK1-K217-S514 (Zea mays, UniProt C0P4K9)', 'ΔTm at 10 µM', -0.507),
  ('CCN1/C(=C/C(C)=O)Sc2ccc(OC)cc21', 'ZmDRIK1-K217-S514 (Zea mays, UniProt C0P4K9)', 'ΔTm at 10 µM', -0.33),
  ('Cn1cc(-c2ccc3ncc(Cc4ccc5ncccc5c4)n3n2)cn1', 'ZmDRIK1-K217-S514 (Zea mays, UniProt C0P4K9)', 'ΔTm at 10 µM', -0.37),
  ('COCCOc1ccc2c(c1)ncn2-c1ccc2cccc(N3CCC(N)CC3)c2n1', 'ZmDRIK1-K217-S514 (Zea mays, UniProt C0P4K9)', 'ΔTm at 10 µM', 0.216),
  ('Cc1cc(Nc2cc(CN3CCOCC3)c3nc(C)c(Cc4ccc(Cl)cc4F)n3n2)n[nH]1', 'ZmDRIK1-K217-S514 (Zea mays, UniProt C0P4K9)', 'ΔTm at 10 µM', -0.0976),
  ('O=C(NOCC1CC1)c1ccc(F)c(F)c1Nc1ccc(I)cc1Cl', 'ZmDRIK1-K217-S514 (Zea mays, UniProt C0P4K9)', 'ΔTm at 10 µM', 0.792),
  ('O=C(c1cccc(Cl)c1F)N1CCN(Cc2cccc(Nc3nccs3)n2)CC1', 'ZmDRIK1-K217-S514 (Zea mays, UniProt C0P4K9)', 'ΔTm at 10 µM', 0.891),
  ('CC(=O)Nc1nc(C)c(-c2ccc(Cl)c(S(=O)(=O)NCCO)c2)s1', 'ZmDRIK1-K217-S514 (Zea mays, UniProt C0P4K9)', 'ΔTm at 10 µM', -0.175),
  ('O=C(/C=C/c1ccc(O)c(O)c1)c1ccc(O)cc1O', 'ZmDRIK1-K217-S514 (Zea mays, UniProt C0P4K9)', 'ΔTm at 10 µM', 0.982),
  ('COc1ccc(S(=O)(=O)N(CCO)c2ccccc2CN(C)C/C=C/c2ccc(Cl)cc2)cc1 [KN-93 Phosphate]', 'ZmDRIK1-K217-S514 (Zea mays, UniProt C0P4K9)', 'ΔTm at 10 µM', -0.811),
  ('N#C/C(=C(/N)Sc1ccc(N)cc1)c1ccccc1C(F)(F)F', 'ZmDRIK1-K217-S514 (Zea mays, UniProt C0P4K9)', 'ΔTm at 10 µM', -0.356),
  ('O=C(Nc1cccc(Cl)c1)Nc1ncc(CCNc2ncnc3ccsc23)s1 [SNS-314 Mesylate]', 'ZmDRIK1-K217-S514 (Zea mays, UniProt C0P4K9)', 'ΔTm at 10 µM', -1.86),
  ('COc1cc(N2CCC(N3CCN(C)CC3)CC2)ccc1Nc1ncc(Cl)c(Nc2ccccc2P(C)(C)=O)n1', 'ZmDRIK1-K217-S514 (Zea mays, UniProt C0P4K9)', 'ΔTm at 10 µM', -0.362),
  ('Cc1cc(C)nc(NS(=O)(=O)c2ccc(NC(=S)NC(=O)COc3ccc(Br)cc3Cl)cc2)n1', 'ZmDRIK1-K217-S514 (Zea mays, UniProt C0P4K9)', 'ΔTm at 10 µM', -0.166),
  ('CC(C)(C)c1cc(/C=C(\C#N)C(N)=S)cc(C(C)(C)C)c1O', 'ZmDRIK1-K217-S514 (Zea mays, UniProt C0P4K9)', 'ΔTm at 10 µM', 0.259),
  ('NC(=O)c1ccc(N(C(N)=O)c2c(F)cccc2F)nc1-c1ccc(F)cc1F', 'ZmDRIK1-K217-S514 (Zea mays, UniProt C0P4K9)', 'ΔTm at 10 µM', -0.374),
  ('Cc1cn(-c2cc(NC(=O)c3ccc(C)c(Nc4nccc(-c5cccnc5)n4)c3)cc(C(F)(F)F)c2)cn1', 'ZmDRIK1-K217-S514 (Zea mays, UniProt C0P4K9)', 'ΔTm at 10 µM', -2.84),
  ('CCOc1cc2ncc(C#N)c(Nc3ccc(F)c(Cl)c3)c2cc1NC(=O)/C=C/CN(C)C [Pelitinib (EKB-569)]', 'ZmDRIK1-K217-S514 (Zea mays, UniProt C0P4K9)', 'ΔTm at 10 µM', -0.496),
  ('Cc1cc(Nc2cc(N3CCN(C)CC3)nc(Sc3ccc(NC(=O)C4CC4)cc3)n2)n[nH]1', 'ZmDRIK1-K217-S514 (Zea mays, UniProt C0P4K9)', 'ΔTm at 10 µM', -0.694);
